Tested on: CCRIS mutagenicity, Ames/micronucleus/aberration tests
Assay: CCRIS mutagenicity studies
Conditions: Test System: AMES SALMONELLA TYPHIMURIUM; Strain/Indicator: TA100; Metabolic Activation: RAT, LIVER, S-9, AROCLOR 1254 (30%); Method: PREINCUBATION
Activity calls are given as the source filed them. No rule for the calls is given here.
METRIC NAME: mutagenic call

COMPOUND: O=[N+]([O-])c1ccccc1CCO
TARGET OR TEST SYSTEM: CCRIS mutagenicity, Ames/micronucleus/aberration tests
RESULT: inactive; negative

COMPOUND: Cc1ccco1
TARGET OR TEST SYSTEM: CCRIS mutagenicity, Ames/micronucleus/aberration tests
RESULT: inactive; negative

COMPOUND: O=C(O)CN(CCN(CC(=O)O)CC(=O)O)CC(=O)O
TARGET OR TEST SYSTEM: CCRIS mutagenicity, Ames/micronucleus/aberration tests
RESULT: inactive; negative

COMPOUND: CCNc1nc(Cl)nc(NC(C)C)n1
TARGET OR TEST SYSTEM: CCRIS mutagenicity, Ames/micronucleus/aberration tests
RESULT: inactive; negative

COMPOUND: CN(C)c1ccc(C(=N)c2ccc(N(C)C)cc2)cc1
TARGET OR TEST SYSTEM: CCRIS mutagenicity, Ames/micronucleus/aberration tests
RESULT: inactive; negative

COMPOUND: CCCCCCCCCCCCOCC1CO1 (centres undefined)
TARGET OR TEST SYSTEM: CCRIS mutagenicity, Ames/micronucleus/aberration tests
RESULT: inactive; negative

COMPOUND: C1COC1
TARGET OR TEST SYSTEM: CCRIS mutagenicity, Ames/micronucleus/aberration tests
RESULT: inactive; negative

COMPOUND: N#C/C(N)=C(/N)C#N
TARGET OR TEST SYSTEM: CCRIS mutagenicity, Ames/micronucleus/aberration tests
RESULT: inactive; negative

COMPOUND: C=C1C/C(=C/C)C(=O)O[C@@H]2CCN3CC=C(COC(=O)[C@@]1(O)CO)[C@H]23
TARGET OR TEST SYSTEM: CCRIS mutagenicity, Ames/micronucleus/aberration tests
RESULT: active; positive

COMPOUND: O=[N+]([O-])c1c2ccccc2cc2ccccc12
TARGET OR TEST SYSTEM: CCRIS mutagenicity, Ames/micronucleus/aberration tests
RESULT: active; positive

COMPOUND: CCC(C)(C)C
TARGET OR TEST SYSTEM: CCRIS mutagenicity, Ames/micronucleus/aberration tests
RESULT: inactive; negative

COMPOUND: ON=C1CCCCC1
TARGET OR TEST SYSTEM: CCRIS mutagenicity, Ames/micronucleus/aberration tests
RESULT: inactive; negative

COMPOUND: CCCCCCCC(=O)O
TARGET OR TEST SYSTEM: CCRIS mutagenicity, Ames/micronucleus/aberration tests
RESULT: inactive; negative

COMPOUND: O=NO
TARGET OR TEST SYSTEM: CCRIS mutagenicity, Ames/micronucleus/aberration tests
RESULT: active; positive

COMPOUND: COc1ccc(OC)c(N=Nc2c(O)ccc3ccccc23)c1
TARGET OR TEST SYSTEM: CCRIS mutagenicity, Ames/micronucleus/aberration tests
RESULT: active; positive

COMPOUND: CCCCCCC=O
TARGET OR TEST SYSTEM: CCRIS mutagenicity, Ames/micronucleus/aberration tests
RESULT: inactive; negative

COMPOUND: O=[N+]([O-])c1c(O)c(Cl)cc(Cl)c1Cl
TARGET OR TEST SYSTEM: CCRIS mutagenicity, Ames/micronucleus/aberration tests
RESULT: inactive; negative

COMPOUND: c1ccc(Nc2ccc(Nc3ccccc3)cc2)cc1
TARGET OR TEST SYSTEM: CCRIS mutagenicity, Ames/micronucleus/aberration tests
RESULT: inactive; negative

COMPOUND: CC(=O)NBr
TARGET OR TEST SYSTEM: CCRIS mutagenicity, Ames/micronucleus/aberration tests
RESULT: inactive; negative

COMPOUND: O=C1c2c(O)cccc2Cc2cccc(O)c21
TARGET OR TEST SYSTEM: CCRIS mutagenicity, Ames/micronucleus/aberration tests
RESULT: inactive; negative

COMPOUND: CCC(CO)[N+](=O)[O-] (centres undefined)
TARGET OR TEST SYSTEM: CCRIS mutagenicity, Ames/micronucleus/aberration tests
RESULT: inactive; negative

COMPOUND: O=C(O)c1cccc(Cl)c1
TARGET OR TEST SYSTEM: CCRIS mutagenicity, Ames/micronucleus/aberration tests
RESULT: inactive; negative

COMPOUND: Cn1cnc([N+](=O)[O-])c1Sc1ncnc2nc[nH]c12
TARGET OR TEST SYSTEM: CCRIS mutagenicity, Ames/micronucleus/aberration tests
RESULT: active; positive

COMPOUND: Clc1ccc(C(Cl)(Cl)Cl)c(Cl)c1
TARGET OR TEST SYSTEM: CCRIS mutagenicity, Ames/micronucleus/aberration tests
RESULT: active; positive

COMPOUND: COC(=O)Nc1cccc(OC(=O)Nc2cccc(C)c2)c1
TARGET OR TEST SYSTEM: CCRIS mutagenicity, Ames/micronucleus/aberration tests
RESULT: inactive; negative

COMPOUND: CCN(Cc1cccc(S(=O)(=O)[O-])c1)c1ccc(C(=C2C=CC(=[N+](C)C)C=C2)c2ccc(N(CC)Cc3cccc(S(=O)(=O)O)c3)cc2)cc1
TARGET OR TEST SYSTEM: CCRIS mutagenicity, Ames/micronucleus/aberration tests
RESULT: inactive; negative

COMPOUND: Nc1ccc(N)cc1
TARGET OR TEST SYSTEM: CCRIS mutagenicity, Ames/micronucleus/aberration tests
RESULT: inactive; negative

COMPOUND: CCCN(CCC)C(=O)SCC
TARGET OR TEST SYSTEM: CCRIS mutagenicity, Ames/micronucleus/aberration tests
RESULT: inactive; negative

COMPOUND: S=c1[nH]c2ccccc2[nH]1
TARGET OR TEST SYSTEM: CCRIS mutagenicity, Ames/micronucleus/aberration tests
RESULT: inactive; negative

====

Test system: CCRIS mutagenicity, Ames/micronucleus/aberration tests
Assay: CCRIS mutagenicity studies
Details: Test System: AMES SALMONELLA TYPHIMURIUM; Strain/Indicator: TA1537; Metabolic Activation: NONE; Method: STANDARD PLATE
Activity calls are given as the source filed them. How the calls were made is not given here.
Possible outcomes: 1.0 for active, 0.0 for inactive

COMPOUND: O=S(=O)(O)CNc1ccc(N=Nc2cccnc2)cc1
ANSWER LABEL: 0.0
--
COMPOUND: CCOS(C)(=O)=O
ANSWER LABEL: 1.0
--
COMPOUND: CN(C)c1ccc([C@H]2C[C@@]3(C)[C@@H](CC[C@@]3(O)/C=C\CO)[C@@H]3CCC4=CC(=O)CCC4=C32)cc1
ANSWER LABEL: 0.0
--
COMPOUND: C1O[C@@H]1[C@@H]1CO1
ANSWER LABEL: 0.0
--
COMPOUND: COc1cccc2c1cc1c3c(cc4c(c32)OCO4)C(=O)N1
ANSWER LABEL: 0.0
--
COMPOUND: Nc1nc2c(ncn2[C@@H]2C=C[C@H](CO)C2)c(=O)[nH]1
ANSWER LABEL: 0.0
--
COMPOUND: ClNc1nc(NCl)nc(NCl)n1
ANSWER LABEL: 0.0
--
COMPOUND: NC(=O)c1ccc(N)cc1
ANSWER LABEL: 0.0
--
COMPOUND: O=S(O)(O)=S
ANSWER LABEL: 0.0
--
COMPOUND: O=S(O)S(=O)(=O)O
ANSWER LABEL: 0.0
--
COMPOUND: CCN(CC)c1ccc(N=Nc2ccc([N+](=O)[O-])cc2)cc1
ANSWER LABEL: 0.0
--
COMPOUND: CC(O)Cc1cc(N)cc([N+](=O)[O-])c1N (stereo not drawn)
ANSWER LABEL: 0.0
--
COMPOUND: CC(C)=CCC1=C(O)c2ccccc2C(=O)C1=O
ANSWER LABEL: 0.0

====

Tested on: CCRIS mutagenicity, Ames/micronucleus/aberration tests
Assay: CCRIS mutagenicity studies
Conditions: Test System: AMES SALMONELLA TYPHIMURIUM; Strain/Indicator: TA98; Metabolic Activation: RAT, LIVER, S-9, AROCLOR 1254; Method: PREINCUBATION
Calls of active or inactive are those of the source. No rule for the calls is given here.
Possible outcomes: class 1 for active, class 0 for inactive

COMPOUND: CCn1c(N)nc2c3cccnc3cc(C)c21
ANSWER LABEL: class 1

COMPOUND: Cc1c(O)cc2c(c1O)C(=O)c1ccccc1C2=O
ANSWER LABEL: class 1

COMPOUND: CN[C@@H]1[C@H](O[C@H]2[C@H](O[C@H]3[C@H](O)[C@@H](O)[C@H](N=C(N)N)[C@@H](O)[C@@H]3N=C(N)N)O[C@@H](C)[C@]2(O)C=O)O[C@@H](CO)[C@H](O)[C@H]1O
ANSWER LABEL: class 0

COMPOUND: CN(C)c1nc2c3cccnc3ccc2n1C
ANSWER LABEL: class 1

COMPOUND: C[Si](Cl)Cl
ANSWER LABEL: class 0

COMPOUND: Cn1c(N)nc2cc(O)ccc21
ANSWER LABEL: class 0

COMPOUND: [Cl][Pd-2]([Cl])([Cl])[Cl]
ANSWER LABEL: class 0

COMPOUND: CC1(C)S[C@@H]2[C@H](NC(=O)[C@H](N)c3ccccc3)C(=O)N2[C@H]1C(=O)O
ANSWER LABEL: class 0

COMPOUND: O=[N+]([O-])c1cc([As](=O)(O)O)ccc1O
ANSWER LABEL: class 0

COMPOUND: N#Cc1ccc2nc(N)[nH]c2c1
ANSWER LABEL: class 1

COMPOUND: Fc1c(F)c(Cl)c(F)c(Cl)c1F
ANSWER LABEL: class 0

COMPOUND: C#C[C@]1(O)CC[C@H]2[C@@H]3CCC4=CC(=O)CC[C@@H]4[C@H]3CC[C@@]21C
ANSWER LABEL: class 0

COMPOUND: O.O.O=C([O-])C(=O)[O-].O=C([O-])C(=O)[O-].[K+].[K+].[Pt+2]
ANSWER LABEL: class 0

COMPOUND: C=CC(=O)NC(C)(C)CC(C)=O
ANSWER LABEL: class 0

COMPOUND: Oc1cc(Cl)ccc1Cl
ANSWER LABEL: class 0

COMPOUND: CC(=O)Nc1ccc(Oc2ccc([N+](=O)[O-])cc2)cc1
ANSWER LABEL: class 1

COMPOUND: O=NN1CCSC1C(O)C(O)C(O)C(O)CO (stereo not drawn)
ANSWER LABEL: class 0

COMPOUND: O=[N+]([O-])c1cccc(Cl)c1Cl
ANSWER LABEL: class 0

COMPOUND: CNc1nc2c3cccnc3ccc2n1C
ANSWER LABEL: class 1

COMPOUND: C1CC2OC2CC1C1CO1 (stereo not drawn)
ANSWER LABEL: class 1

COMPOUND: CC[C@H]1OC(=O)[C@H](C)[C@@H](O[C@H]2C[C@@](C)(OC)[C@@H](O)[C@H](C)O2)[C@H](C)[C@@H](O[C@@H]2O[C@H](C)C[C@H](N(C)C)[C@H]2O)[C@](C)(O)C[C@@H](C)C(=O)[C@H](C)[C@@H](O)[C@]1(C)O
ANSWER LABEL: class 0

COMPOUND: [Cl][Pt-2]([Cl])([Cl])[Cl]
ANSWER LABEL: class 1

COMPOUND: Nc1ccc(N=Nc2ccc(N)cc2)cc1
ANSWER LABEL: class 1
